Documented log10 of EC50 across a set of binders
- Study System: T1, huNav1.7α (human, UniProt Q15858 1-1988)
- T1 construct: HEK cells expressing the α subunit alone; also called HEKa; HEK huNav1.7α
- Procedure Details: binding FACS, HEKa cells
The base-10 logarithm of EC50, taken with EC50 in nM, is what appears here.

Quick one: log10 of EC50 of F010300900 (VHH, vs F0103275B05: S27P, I28V, S33R, N53P, S56D, N93R, A94W, T101I) VHH: EVQLVESGGGLVQPGGSLRLSCAASGPVFNINRMAWYRRAPGKQRELVASSTPGGDTNYADSVKGRFTISRDNAKRVYLQMNSLTPEDTAVYYCRWLLQPSIYDISRIYWGQGTLVTVSS ?
1.30

Also, F010300796 (VHH, vs F0103275B05: S27P, I28V, S33R, S50Y, N53P, S56D) VHH: EVQLVESGGGLVQPGGSLRLSCAASGPVFNINRMAWYRRAPGKQRELVAYSTPGGDTNYADSVKGRFTISRDNAKRVYLQMNSLTPEDTAVYYCNALLQPSIYDISRTYWGQGTLVTVSS please.
0.76

And what about the binder F010300880 (VHH, vs F0103275B05: S27P, I28V, S33R, N53P, S56D, N93R, A94W) VHH: EVQLVESGGGLVQPGGSLRLSCAASGPVFNINRMAWYRRAPGKQRELVASSTPGGDTNYADSVKGRFTISRDNAKRVYLQMNSLTPEDTAVYYCRWLLQPSIYDISRTYWGQGTLVTVSS ?
1.18

Continue with F010301461 (VHH, also called F0103275B05(S33R, S50Y, S56D, N93R)) VHH: EVQLVESGGGLVQPGGSLRLSCAASGSIFNINRMAWYRRAPGKQRELVAYSTNGGDTNYADSVKGRFTISRDNAKRVYLQMNSLTPEDTAVYYCRALLQPSIYDISRTYWGQGTLVTVSS
1.45

Field entry: F010301000 (VHH, vs F0103275B05: S27P, I28V, S33R, S50Y, N53P, S56D, T101I) VHH: EVQLVESGGGLVQPGGSLRLSCAASGPVFNINRMAWYRRAPGKQRELVAYSTPGGDTNYADSVKGRFTISRDNAKRVYLQMNSLTPEDTAVYYCNALLQPSIYDISRIYWGQGTLVTVSS
0.93
